Overview of recorded % non-allergic individuals with cytokine production in ex-vivo T cell assay IL-17 for various molecules
# Test system: PBMC cells obtained from mite allergic patients and non-allergics
# assay.comment: Ex vivo stimulation of PBMC: cytokine production (IFN-gamma, IL-9, IL-10, IL-17, IL-31)
# Assay type: cell-based, human
# experimental.parameters: non-allergic individuals; IL-17
Include the unit after the number when you answer.

A020: house dust mite protein; SEQ ID NO: 15 (Der f), 16 (Der p); Blo t SEQ ID NO: 316 printed as A0019 (protein) MSKPIFYYHPFSGPCRTVSTVAKILNVDMEMKKLDLLTKEHLNPEFLKVNPFHKVPTFVDSDGFVVDESRVIAMYLVESRKPDSFLYPKNDLKKRIQIDRWLHYDINLSTTISAPMFCVFRGHQVQDYQVEQGKETLKTLDGVMQSFEGKFLTGADQFTLADIAMYFSLNTMEVYPKYFKFDDYPNLKSWYHRVAEALKQYDTEGTIPKAIETMKQFIQQRAAEAEKH ... 0%

Turning now to a further molecule:
### Prompt State the recorded % non-allergic individuals with cytokine production in ex-vivo T cell assay IL-17 for this entry: A003: house dust mite protein; SEQ ID NO: 2 (Der f), 3 (Der p), 305 (Blo t) (protein) MAIDGKYQMESSEHFEEFVKEMGLDVDMTNVDLSKTSTMEICKDGDVYHIKSETAGIAHEIKFKVGEEFEDDMNGHKFKNVVTMECDNKMVQKKTSADGGKVVNVVREFTDAGCTVKSTYNTVTWTRVYKRM
### Response 17%
